assay: Plasma and liver concentrations of modulators after i.v. infusion in rats; assay type: in vivo; settings: Sprague-Dawley, rat, intravenous; 6 mg/kg i.v., liver homogenate, LC-MS/MS; read-out: Liver Total Concentrations
Counter-ions that a name gives are not always drawn.
measured-property: concentration at 3 h (µM)
Field: numeric (µM). Do not append units.

input: Sample O=C1c2c(O)ccc(O)c2C(=O)c2c(NCCNCCO)ccc(NCCNCCO)c21 [Mitoxantrone, Mitoxantrone hydrochloride] — what was its concentration at 3 h?
output: 854

###

experiment: Plasma and liver concentrations of modulators after i.v. infusion in rats; type: in vivo; details: Sprague-Dawley, rat, liver/plasma, intravenous; 6 mg/kg i.v., liver at terminal time point (3 h); read-out: Liver to Plasma Ratio
Counter-ions that a name gives are not always drawn.
measured-property: Kp at 3 h
// return a plain number; no unit text

input: State the recorded Kp at 3 h for this entry: O=C1c2c(O)ccc(O)c2C(=O)c2c(NCCNCCO)ccc(NCCNCCO)c21 [Mitoxantrone, Mitoxantrone hydrochloride]
output: 199
